Test: recombinant UMI read abundance after kanamycin selection (control-corrected) (log10(CPM+1)); higher = more efficient recombination; extreme values may be limits of the assay; sequences stand for … in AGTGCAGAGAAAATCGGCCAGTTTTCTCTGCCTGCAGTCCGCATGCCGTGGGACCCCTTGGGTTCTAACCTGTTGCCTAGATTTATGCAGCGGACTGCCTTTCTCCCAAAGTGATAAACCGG…AGGTTGGTTTCACT; site = the 11-nt donor;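 also: IS621 bridge recombinase in Escherichia coli cells against a fixed T5 target plasmid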
I'd appreciate it if you could supply recombinant UMI read abundance (log10) values for the items below.
Give bare numbers.

seq	numeric result
ACACGAACATGGACCGGTTTTCCCGGTAATCCGTATTTGTC (site ACCCGAACTGA)	0
CCCTTAGCATGGACCGGTTTTCCCGGTAATCCGTATTTGTG (site CCCTTAGCTCA)	0.0472
TGGAATCCATGGACCGGTTTTCCCGGTAATCCGTATTTGGT (site CGGAATCCTAA)	0
TTCGCGGCATGGACCGGTTTTCCCGGTAATCCGTATTTGCT (site TTGGCGGCTAG)	0.00776
ATCGAATCATGGACCGGTTTTCCCGGTAATCCGTATTTGAA (site ATCGAATCTTT)	2.58

# per-item lookup of recombinant UMI read abundance (log10); items listed below
1. TTTTTGGCATGGACCGGTTTTCCCGGTAATCCGTATTTGTG (site TTTTTGGCTCA)
2. CCTTAGACATGGACCGGTTTTCCCGGTAATCCGTATTTGAG (site CTTTAGACTCT)
3. AGGTCCCCATGGACCGGTTTTCCCGGTAATCCGTATTTGTG (site AGGTCCCCTCA)
4. TATCCTTCATGGACCGGTTTTCCCGGTAATCCGTATTTGGT (site TACCCTTCTAC)
5. TACTTGGCATGGACCGGTTTTCCCGGTAATCCGTATTTGCT (site TACTTGCCTAG)

1. 0.00438
2. 0.0107
3. 0.0562
4. 0.0066
5. 0.00558
